# EXPERIMENT DESCRIPTION: Sirolimus concentrations in whole blood samples after balloon inflation
# Assay type: in vivo, rabbit
# MEASUREMENT CONDITIONS: rabbit, whole blood, rabbit #2, 5 min after 2nd balloon inflation; cumulative of 2 coated balloons; read-out: Extraction Conc.

MOLECULE	concentration at 5 min, ng/mL
CO[C@H]1C[C@@H]2CC[C@@H](C)[C@@](O)(O2)C(=O)C(=O)N2CCCC[C@H]2C(=O)O[C@H]([C@H](C)C[C@@H]2CC[C@@H](O)[C@H](OC)C2)CC(=O)[C@H](C)/C=C(\C)[C@@H](O)[C@@H](OC)C(=O)[C@H](C)C[C@H](C)/C=C/C=C/C=C/1C [Sirolimus, rapamycin]	30.8
